Molecular target: cloned human or rodent CNS receptors, channels, and transporters (PDSP panel) (Homo sapiens, UniProt P21918)
Construct: expressed in transfected cells
Sequence (P21918 whole entry): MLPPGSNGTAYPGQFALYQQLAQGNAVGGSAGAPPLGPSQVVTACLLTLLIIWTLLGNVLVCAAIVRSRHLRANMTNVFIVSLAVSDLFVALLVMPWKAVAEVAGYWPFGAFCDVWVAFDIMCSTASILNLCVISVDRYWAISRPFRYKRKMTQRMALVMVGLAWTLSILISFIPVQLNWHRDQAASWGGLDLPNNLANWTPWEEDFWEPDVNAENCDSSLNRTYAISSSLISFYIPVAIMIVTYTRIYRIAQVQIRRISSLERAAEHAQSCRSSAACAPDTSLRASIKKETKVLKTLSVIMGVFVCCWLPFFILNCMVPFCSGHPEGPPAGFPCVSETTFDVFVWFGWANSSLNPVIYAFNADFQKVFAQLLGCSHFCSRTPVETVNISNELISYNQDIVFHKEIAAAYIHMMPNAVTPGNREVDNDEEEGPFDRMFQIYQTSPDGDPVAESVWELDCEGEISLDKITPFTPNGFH
Assay: PDSP GPCR panel primary binding assays at 10 μM
Settings: Receptor D5; primary assay, 10 μM
READOUT: Inhibition 1 (%)

>>> print(df.to_string())
                                   molecule       readout  obs_value
0  Cl.NC(=O)c1cnc(N[C@@H]2CCCC[C@@H]2N)nc1Nc1cccc(-n2nccn2)c1 [UNC10302682A, P505-15 (PRT06207 HCl)]  Inhibition 1      21.97
1  O=c1oc2ccccc2cc1-c1cn2cc(Cc3ccc(F)cc3)sc2n1 [UNC10302680A, iMDK]  Inhibition 1      22.41
2  c1cn2cc(-c3ccc4cn[nH]c4c3)nc(Nc3ccc(N4CCOCC4)cc3)c2n1 [UNC10302678A, Entospletinib (GS-9973)]  Inhibition 1       5.49
3  CCCCNc1ncc2c(-c3ccc(CN4CCN(C)CC4)cc3)cn([C@H]3CC[C@H](O)CC3)c2n1 [UNC2025C, UNC2025]  Inhibition 1       6.22

Data credit: paper PMC9005681
